- Tested on: HL-60
- assay_info: Antiproliferative activity against human HL60 cells assessed as reduction in cell viability incubated for 48 hrs by MTT assay
- Type: functional, cell-based
- condition_notes: HL-60, 48 h
property_name: pIC50
The read-out pIC50 is expressed as -log10 of concentration in moles per litre.

Reported pIC50 ( O=S(=O)(Nc1ccc(O)c2ncccc12)c1ccc(F)cc1 ) = 5.34

Reported pIC50 ( O=C(CCNCc1cc(Cl)c2cccnc2c1O)Nc1ccccc1 ) = 5.89

* * *

- Test system: MCF7
- assay_info: Antiproliferative activity against human MCF7 cells assessed as reduction in cell viability incubated for 48 hrs by MTT assay
- Format: functional, cell-based
- condition_notes: MCF7, 48 h
property_name: IC50

Case O=C(CCCCCNCc1cc(Cl)c2cccnc2c1O)Nc1ccccc1 , MCF7, IC50 recorded as 4.6 µM

Case Cc1[nH]c2ccccc2c1CCNC(=O)CCCNCc1cc(Cl)c2cccnc2c1O , MCF7, IC50 recorded as 7.8 µM

Case O=S(=O)(Nc1ccc(O)c2ncccc12)c1ccc(F)cc1 , MCF7, IC50 recorded as 42 µM

Case COc1ccc(S(=O)(=O)N(CC(=O)NO)CC(C)C)cc1 , MCF7, IC50 recorded as 187 µM

Case O=C(CCCCNCc1cc(Cl)c2cccnc2c1O)Nc1ccccc1 , MCF7, IC50 recorded as 7.4 µM

Case O=C(CCNCc1cc(Cl)c2cccnc2c1O)Nc1ccccc1 , MCF7, IC50 recorded as 13 µM

Case CC1(C)SCCN(S(=O)(=O)c2ccc(Oc3ccncc3)cc2)[C@H]1C(=O)NO [PRINOMASTAT] , MCF7, IC50 recorded as > 500 µM

Case Cc1[nH]c2ccccc2c1CCNC(=O)CCCCCNCc1cc(Cl)c2cccnc2c1O , MCF7, IC50 recorded as 12 µM

Case O=C(CCCNCc1cc(Cl)c2cccnc2c1O)Nc1ccccc1 , MCF7, IC50 recorded as 9 µM

Case O=C(CNCc1cc(Cl)c2cccnc2c1O)Nc1ccccc1 , MCF7, IC50 recorded as 13 µM

* * *

Kindly supply the reported pIC50 values for the records listed here.
- Tested on: A549
- assay_info: Antiproliferative activity against human A549 cells assessed as reduction in cell viability incubated for 48 hrs by MTT assay
- Assay type: functional, cell-based
- condition_notes: A549, 48 h
The read-out pIC50 is expressed as -log10 of concentration in moles per litre.

Reported pIC50 ( COc1ccc(S(=O)(=O)N(CC(=O)NO)CC(C)C)cc1 ) = 4.02

Reported pIC50 ( O=C(CCCCNCc1cc(Cl)c2cccnc2c1O)Nc1ccccc1 ) = 4.89

Reported pIC50 ( O=C(CCCCCNCc1cc(Cl)c2cccnc2c1O)Nc1ccccc1 ) = 4.96

Reported pIC50 ( O=C(CCCNCc1cc(Cl)c2cccnc2c1O)Nc1ccccc1 ) = 4.77

Reported pIC50 ( O=S(=O)(Nc1ccc(O)c2ncccc12)c1ccc(F)cc1 ) = 4.29

Reported pIC50 ( Cc1[nH]c2ccccc2c1CCNC(=O)CCCNCc1cc(Cl)c2cccnc2c1O ) = 5.19

Reported pIC50 ( O=C(CNCc1cc(Cl)c2cccnc2c1O)Nc1ccccc1 ) = 5.13

Reported pIC50 ( O=C(CCNCc1cc(Cl)c2cccnc2c1O)Nc1ccccc1 ) = 5.01

// data source = ChEMBL document CHEMBL4406825
